Quick list: INHIBITION per entry.
system: Plasmodium falciparum; assay: Screen against P. falciparum Asexual Blood Stage (ABS), at 5uM; assay type: functional, Dd2; details: tested at 5 uM
About 2,100 (3.2%) of roughly 65,000 compounds showed an effect of 50% or more. The median lay at about -52%. For the sample, strong results were picked, then their nearest neighbours and some compounds at random.
Response body: numeric value in %, unit text excluded.

See these solved cases before continuing.
NC(=O)CN1CCC(NC(=O)COc2ccc(Cl)c(Cl)c2)CC1    -138
CCc1nc(CNc2cc(C)nc(-c3cccnc3)n2)cs1    -19.9
CN(Cc1cccnc1N)Cc1cccc2ncccc12    15.1
CC(Cn1ccnc1)NC(=O)NCCc1cccnc1 (stereo not given)    30.9
O=c1c(NCc2ccncc2)c(NCC(O)CN2CCOCC2)c1=O (stereo not given)    -27
O=C1N(Cc2cccnc2)CCC12CCCN(c1ncccn1)C2 (stereo not given)    -123
CN(Cc1cccc(CCN)c1)Cc1cccc2ncccc12    60.4
Cc1cc2c(=O)n3c(nc2s1)CCN(Cc1[nH]cnc1C)CC3    -96.3
CCN(Cc1ccccn1)Cc1cc(Cl)ccc1OC    -28.3
CCN(Cc1cc(Cl)ccc1OC)Cc1ncnn1CC    -33.4

# input GET /values?readout=INHIBITION&item= `Cc1cc(N2CCCN(Cc3ccc(C)o3)CC2)ccn1`
# output 35.2

# input What INHIBITION value was documented for this molecule, CCC(=O)c1ccc(Br)cc1NN1c2cc(Br)ccc2C(=O)C1(C)OC (stereo not given) ?
# output 43.1

# input What does the data say about its INHIBITION? Entry: O=C(NC1CCN(c2ncccc2F)C1)c1cccc(-n2ccnc2)c1 (stereo not given)
# output -41.7

# input Value lookup for INHIBITION; key = COCCCNC(=O)CN(C)C(C)c1nc(C(C)C)no1 (stereo not given)
# output -119

* * *

INHIBITION values for the compounds below.
system: Plasmodium falciparum; assay: Screen against P. falciparum Asexual Blood Stage (ABS), at 5uM; assay type: functional, Dd2; conditions: tested at 5 uM
Hit rate of the full screen: of about 65,000 compounds, about 2,100 (3.2%) showed an effect of 50% or more. The median lay at about -52%. The sample holds strong results, similar compounds and a random draw of the others, so the mix is not that of the screen.
Numbers only here, please. The scale is %.

For orientation, consider the following solved cases.
CC(C)(C)n1ncc2c1CCCC2NCc1cccc2c1OCO2 (centres undefined)    56.8
Fc1ccc(CN2CCCC2Cn2cccn2)c2ncccc12 (centres undefined)    59.1
Cn1ncc2c1CCCC2NCc1cccc2c1OCCCO2 (centres undefined)    -48.9
Cn1cc(N2CC3(CCN(Cc4ccoc4)CC3)OCC2=O)cn1    -50.3
CN(C)CC1(O)CCCN(c2noc(-c3ccccc3)n2)CC1 (centres undefined)    -3.62
CC(C)(C)NC(=O)C1CSCN1C(=O)CCc1ccco1 (centres undefined)    -87.6
Clc1ccc(CN2CCCC(Cn3cncn3)C2)c2ncccc12 (centres undefined)    64.6
Cn1ccnc1-c1nccn1-c1cccc(CN2CCCC2)c1    -2.05

# input Please give the measured INHIBITION for this compound: CCn1ncc2c1CCCC2NCc1cccc2c1OCO2 (centres undefined)
# output -116

# input Find the recorded INHIBITION belonging to CCC(NCc1ccccn1)c1ccccc1OCC(=O)NC (centres undefined) and report it.
# output -27.1

# input State the recorded INHIBITION for this entry: COc1ccc(-n2ncc3c2NC(=O)CSC3CC(C)C)cc1 (centres undefined)
# output -124

# input For Fc1ccc(CN2CCCC2Cn2cncn2)c2ncccc12 (centres undefined) , what is its reported INHIBITION?
# output 13.9

# input Please give the measured INHIBITION for this compound: CCn1cc2c(n1)CN(Cc1ccc(C)o1)CC2COCC1CC1 (centres undefined)
# output -68.6

* * *

tested on: Plasmodium falciparum; assay: Screen against P. falciparum Asexual Blood Stage (ABS), at 5uM; format: functional, Dd2; details: tested at 5 uM
Screen size: about 65,000 compounds; about 2,100 (3.2%) showed an effect of 50% or more. The median lay at about -52%. The sample as a whole holds a higher share of strong results than the screen did.
assay-metric: INHIBITION (%)
Express your answer in %, writing the number without its unit.

Use these answered entries as a reference point.
Cc1nc(C)n(CC2CCCN(CC(=O)Nc3cc(C)on3)C2)n1 (centres undefined)    3.79
CN(C)C1(CNC(=O)C2CCCN2Cc2ccc(F)cc2)CCOCC1 (centres undefined)    68.7
CCc1nccn1-c1nccnc1C1CCN(C(=O)COC)CC1    -25.8
COCCN1CCC(CNC(=O)C2(c3cccc(Cl)c3)CC2)C1 (centres undefined)    -0.48
Cc1cc2n(n1)CC(CNCc1ccc(OCC3CC3)nc1)CN2 (centres undefined)    -101

# input Using the record for Cc1cc2n(n1)CC(CNCc1ccc(Oc3ccccc3)nc1)CN2 (centres undefined) , report its INHIBITION.
# output 58.9

# input Request the reported INHIBITION associated with `CNc1ncc(CN(C)C(=O)CCc2[nH]nc3c2CCCC3)cn1`
# output -74.2

# input Recorded INHIBITION for COc1cccc(CN2CCCCCC2c2cccs2)c1O (centres undefined) , please?
# output 3.59

* * *

test system: Plasmodium falciparum; assay: Screen against P. falciparum Asexual Blood Stage (ABS), at 5uM; assay type: functional, Dd2; details: tested at 5 uM
The campaign covered roughly 65,000 compounds. About 2,100 (3.2%) showed an effect of 50% or more. The median lay at about -52%. For the sample, strong results were picked, then their nearest neighbours and some compounds at random.
Below: a set of entries, each annotated with reported INHIBITION.
Just the number in %, nothing appended.

Some solved entries appear below for comparison.
CC(C)N1CC[C@H]2[C@H](C[C@@H](Cn3cccn3)N2c2nccs2)C1    66.3
CC(Oc1ccc2c(c1)OCO2)C(=O)N1CCC(N2CCOCC2)CC1 (configuration not stated)    -162

# input For `O=C(C1CCCC1)N1C[C@@H](c2ccsc2)[C@@H]2CN(C3CCCC3)CC[C@@H]21` , what is its reported INHIBITION?
# output 54.7

# input Request the reported INHIBITION associated with Cc1nccn1CCC1CCCCN1Cc1ccc(O)cc1Cl (configuration not stated)
# output 24.6

* * *

tested on: Plasmodium falciparum; assay: Screen against P. falciparum Asexual Blood Stage (ABS), at 5uM; type: functional, Dd2; settings: tested at 5 uM
Out of some 65,000 compounds screened, about 2,100 (3.2%) showed an effect of 50% or more. The median lay at about -52%. The entries come from a sample that favours strong results as a whole.
The entries below are paired with their reported INHIBITION.
Express it in %; write the number only.

O=C(CO[C@@H]1CC[C@H]2[C@H]1OCCN2Cc1ccccn1)N1CCCC1    -59.6
Cc1cnn(CCNCc2c(C)nn(Cc3ccccc3)c2C)c1    34.2
Cc1cc(C(=O)NCC(F)(F)F)c2c(C3CCNCC3)noc2n1    -42.4
O=c1cc(C2CCNCC2)nc(Cc2cccc(Cl)c2)[nH]1    -25.9

Next, consider the following compound.
# input Which INHIBITION is reported with Plasmodium falciparum for this entry: `CSc1nccc(N2CCC(NCc3ccc4c(c3)OCO4)CC2)n1` ?
# output 51.4

* * *

tested on: Plasmodium falciparum; assay: Screen against P. falciparum Asexual Blood Stage (ABS), at 5uM; assay type: functional, Dd2; conditions: tested at 5 uM
In all, about 65,000 compounds went through this assay and about 2,100 (3.2%) showed an effect of 50% or more. The median lay at about -52%. Shown is part of a subset that was picked to be rich in strong results.
assay-metric: INHIBITION (%)
Give the quantity in %, number only.

Below are worked cases with known answers.
CCN(C1CCN(Cc2ncc(C(C)(C)C)o2)CC1)S(C)(=O)=O    -26.2
CC(C)NC(=O)CCNC(=O)CCc1cc(Cl)cs1    -9.13
Cc1cc(CN(C)Cc2ncc(-c3ccccc3)o2)no1    -107
CN1CCN([C@H]2CCN(C(=O)c3cc(Cl)cn3C)C[C@H]2CCCO)CC1    -28.7
COc1cccc(C(=O)C2CCCN(c3cc(C#N)ccn3)C2)c1 (centres undefined)    -25.2

# input Could you tell me which INHIBITION is on file for `Cn1cccc1-c1cc(C(=O)NCCCc2csc(N)n2)[nH]n1` ?
# output -75.5

# input Fill blank: measured INHIBITION of the compound CC(C)N1CCCC(Cc2cncc(Br)c2)CC1 (centres undefined) is ____.
# output -20.1

# input Requested read-out: INHIBITION. Entry: `COc1ncccc1C(=O)N1CC[C@H]2C[C@H](c3ccncn3)O[C@@H]2C1`
# output -27.7

# input For the compound shown here, `Cc1nc(CN2CCCN(CCOc3ccc(C#N)cc3)CC2)no1` , give the reported INHIBITION.
# output -71.7
